# target under test: HLA-DRB1*07:01 (Homo sapiens, UniProt P01903+P01911, A100R/A102G/A103Q/D57E/D86V/E43K/F76Y/K127E/L162R/M171V/P40G/Q125H/Q99D/R33Q/R42Y/R54Q/S133A/S66F/T210M/V115G/Y107V/Y59L/Y89S)
# procedure summary: biochemical
Entries and their IC50
endpoint label: IC50 (nM)

{"compound": "CC[C@H](C)[C@H](N)C(=O)N1CCC[C@H]1C(=O)N[C@@H](Cc1ccccc1)C(=O)N[C@@H](C)C(=O)N[C@@H](CCSC)C(=O)N[C@@H](CCC(N)=O)C(=O)N[C@@H](CCSC)C(=O)N[C@@H](C)C(=O)N[C@@H](Cc1ccc(O)cc1)C(=O)N[C@@H](CCCNC(=N)N)C(=O)N[C@@H](Cc1ccccc1)C(=O)N[C@@H](CC(N)=O)C(=O)NCC(=O)N[C@H](C(=O)NCC(=O)O)[C@@H](C)CC [peptide 180]", "measured": 25}
{"compound": "CC[C@H](C)[C@H](NC(=O)CN)C(=O)N[C@@H](Cc1ccc(O)cc1)C(=O)N[C@@H](CCC(N)=O)C(=O)N[C@H](C(=O)N[C@@H](CO)C(=O)N[C@@H](CC(N)=O)C(=O)N[C@@H](Cc1ccccc1)C(=O)N[C@@H](CCCNC(=N)N)C(=O)N[C@H](C(=O)N[C@@H](CCC(N)=O)C(=O)N1CCC[C@H]1C(=O)N[C@H](C(=O)N[C@@H](CCC(=O)O)C(=O)N[C@@H](CO)C(=O)O)[C@@H](C)O)C(C)C)[C@@H](C)O", "measured": 12}
{"compound": "CC(C)C[C@H](NC(=O)[C@H](C)NC(=O)[C@H](CC(C)C)NC(=O)[C@H](CC(C)C)NC(=O)[C@@H](NC(=O)[C@H](CCC(N)=O)NC(=O)[C@H](Cc1ccccc1)NC(=O)[C@H](CCCNC(=N)N)NC(=O)[C@@H](N)[C@@H](C)O)[C@@H](C)O)C(=O)N[C@@H](Cc1c[nH]cn1)C(=O)N[C@@H](CCCNC(=N)N)C(=O)N[C@@H](CO)C(=O)N[C@@H](Cc1ccc(O)cc1)C(=O)N[C@@H](CC(C)C)C(=O)N[C@H](C(=O)O)[C@@H](C)O [peptide 48]", "measured": 3.9}
{"compound": "CC[C@H](C)[C@H](NC(=O)[C@H](Cc1ccccc1)NC(=O)[C@@H](N)CO)C(=O)N[C@@H](CCC(=O)O)C(=O)N[C@@H](CC(=O)O)C(=O)N[C@@H](CC(C)C)C(=O)N[C@@H](CC(C)C)C(=O)N[C@@H](Cc1ccccc1)C(=O)N[C@@H](CC(N)=O)C(=O)N[C@@H](CCCCN)C(=O)N[C@H](C(=O)N[C@H](C(=O)N[C@@H](CC(C)C)C(=O)N[C@@H](C)C(=O)N[C@@H](CC(=O)O)C(=O)O)[C@@H](C)O)C(C)C [peptide 164]", "measured": 3960}
{"compound": "CC[C@H](C)[C@H](NC(=O)[C@H](CCCCN)NC(=O)[C@@H](N)Cc1ccccc1)C(=O)N[C@@H](Cc1ccc(O)cc1)C(=O)N[C@@H](CO)C(=O)N[C@@H](CCCCN)C(=O)N[C@@H](Cc1c[nH]cn1)C(=O)N[C@H](C(=O)N1CCC[C@H]1C(=O)N[C@H](C(=O)N[C@@H](CC(N)=O)C(=O)N[C@@H](CC(C)C)C(=O)N[C@H](C(=O)N[C@@H](CCCNC(=N)N)C(=O)N[C@@H](CC(=O)O)C(=O)O)C(C)C)[C@@H](C)CC)[C@@H](C)O [peptide 41]", "measured": 2.7}
{"compound": "CC(C)[C@H](N)C(=O)N[C@@H](Cc1ccccc1)C(=O)N[C@@H](CC(N)=O)C(=O)N[C@@H](C)C(=O)N[C@H](C(=O)N[C@@H](CCCNC(=N)N)C(=O)N[C@@H](Cc1ccccc1)C(=O)N[C@@H](C)C(=O)N[C@@H](CO)C(=O)N[C@H](C(=O)N[C@@H](Cc1ccc(O)cc1)C(=O)N[C@@H](C)C(=O)N[C@@H](Cc1c[nH]c2ccccc12)C(=O)N[C@@H](CC(N)=O)C(=O)N[C@@H](CCCNC(=N)N)C(=O)O)C(C)C)[C@@H](C)O [peptide 69]", "measured": 2.7}

----------
# pIC50 per entry
# target under test: HLA-DRB1*03:01 (Homo sapiens, UniProt P01903+P01911, A100K/A102G/A103R/A169T/F55Y/I96L/K41T/L162R/M171V/P40S/Q125H/Q178H/Q39Y/R42S/S66N/T106N/T262R/W38E/Y61H)
# Sequence (P01903 26-254, other chains not shown): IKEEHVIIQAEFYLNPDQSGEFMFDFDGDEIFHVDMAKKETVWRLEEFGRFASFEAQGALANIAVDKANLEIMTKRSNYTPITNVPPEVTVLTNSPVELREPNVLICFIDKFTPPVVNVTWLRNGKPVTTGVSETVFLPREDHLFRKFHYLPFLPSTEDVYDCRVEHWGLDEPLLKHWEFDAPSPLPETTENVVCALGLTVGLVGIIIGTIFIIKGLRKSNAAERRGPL
# procedure summary: biochemical
pIC50: −log10 of the molar value.

{"molecule": "CC[C@H](C)[C@H](NC(=O)[C@H](CCCNC(=N)N)NC(=O)[C@H](CCCCN)NC(=O)[C@H](CCCNC(=N)N)NC(=O)[C@H](CC(N)=O)NC(=O)[C@H](Cc1c[nH]c2ccccc12)NC(=O)[C@H](C)NC(=O)[C@H](Cc1ccc(O)cc1)NC(=O)[C@@H](NC(=O)[C@H](CO)NC(=O)[C@H](C)NC(=O)[C@H](Cc1ccccc1)NC(=O)[C@@H](N)CCCNC(=N)N)C(C)C)C(=O)N[C@@H](CO)C(=O)N[C@@H](CC(N)=O)C(=O)O [compound 70]", "comparison sign": "<", "pIC50": 4.40}
{"molecule": "CSCC[C@H](NC(=O)[C@H](CC(C)C)NC(=O)[C@H](Cc1ccccc1)NC(=O)[C@@H]1CCCN1C(=O)[C@H](CCC(N)=O)NC(=O)[C@H](CO)NC(=O)[C@@H](NC(=O)[C@H](Cc1ccc(O)cc1)NC(=O)[C@H](CCC(=O)O)NC(=O)[C@H](Cc1ccccc1)NC(=O)[C@@H](NC(=O)[C@@H](N)CS)[C@@H](C)O)C(C)C)C(=O)N[C@@H](CC(=O)O)C(=O)N[C@@H](CC(C)C)C(=O)N[C@@H](CCC(=O)O)C(=O)O [peptide 34]", "comparison sign": "=", "pIC50": 5.23}

----------
# target under test: HLA-DRB1*09:01 (Homo sapiens, UniProt P01903+P01911, A100R/A103E/D57H/D86V/F55Y/F60I/F76Y/I96F/K127E/L162R/M171V/P40D/Q125H/Q99R/R33Q/R42F/S133A/S66N/T210M/V115G/W38K/Y107V/Y59G/Y89S)
# procedure summary: biochemical
The label fulfilled is reserved for IC50 strictly under 100 nM; not fulfilled covers values equal to or above it.

{"molecule": "CC[C@H](C)[C@H](N)C(=O)N1CCC[C@H]1C(=O)N[C@@H](Cc1ccccc1)C(=O)N[C@@H](C)C(=O)N[C@@H](CCSC)C(=O)N[C@@H](CCC(N)=O)C(=O)N[C@@H](CCSC)C(=O)N[C@@H](C)C(=O)N[C@@H](Cc1ccc(O)cc1)C(=O)N[C@@H](CCCNC(=N)N)C(=O)N[C@@H](Cc1ccccc1)C(=O)N[C@@H](CC(N)=O)C(=O)NCC(=O)N[C@H](C(=O)NCC(=O)O)[C@@H](C)CC [peptide 180]", "qualitative label": "fulfilled"}
{"molecule": "CC[C@H](C)[C@H](NC(=O)[C@H](CCCCN)NC(=O)[C@@H](N)Cc1ccccc1)C(=O)N[C@@H](Cc1ccc(O)cc1)C(=O)N[C@@H](CO)C(=O)N[C@@H](CCCCN)C(=O)N[C@@H](Cc1c[nH]cn1)C(=O)N[C@H](C(=O)N1CCC[C@H]1C(=O)N[C@H](C(=O)N[C@@H](CC(N)=O)C(=O)N[C@@H](CC(C)C)C(=O)N[C@H](C(=O)N[C@@H](CCCNC(=N)N)C(=O)N[C@@H](CC(=O)O)C(=O)O)C(C)C)[C@@H](C)CC)[C@@H](C)O [peptide 41]", "qualitative label": "fulfilled"}
{"molecule": "CC[C@H](C)[C@H](NC(=O)[C@H](CC(=O)O)NC(=O)CNC(=O)[C@H](CC(C)C)NC(=O)[C@H](CS)NC(=O)[C@H](CC(=O)O)NC(=O)CNC(=O)[C@H](Cc1ccc(O)cc1)NC(=O)[C@H](CCC(N)=O)NC(=O)[C@H](CCCCN)NC(=O)[C@@H](NC(=O)[C@H](Cc1ccccc1)NC(=O)CNC(=O)[C@H](C)N)[C@@H](C)CC)C(=O)N[C@@H](C)C(=O)O [peptide 167]", "qualitative label": "not fulfilled"}
{"molecule": "CC[C@H](C)[C@H](NC(=O)[C@H](Cc1ccccc1)NC(=O)[C@H](CO)NC(=O)[C@H](CCCNC(=N)N)NC(=O)[C@H](CCCCN)NC(=O)[C@H](CO)NC(=O)[C@@H]1CCCN1C(=O)[C@@H](N)CCCCN)C(=O)N[C@@H](CCC(=O)O)C(=O)N[C@@H](CC(=O)O)C(=O)N[C@@H](CC(C)C)C(=O)N[C@@H](CC(C)C)C(=O)N[C@@H](Cc1ccccc1)C(=O)N[C@@H](CC(N)=O)C(=O)N[C@@H](CCCCN)C(=O)O [peptide 163]", "qualitative label": "not fulfilled"}
{"molecule": "CC(C)C[C@H](NC(=O)[C@H](C)NC(=O)[C@H](CC(C)C)NC(=O)[C@H](CC(C)C)NC(=O)[C@@H](NC(=O)[C@H](CCC(N)=O)NC(=O)[C@H](Cc1ccccc1)NC(=O)[C@H](CCCNC(=N)N)NC(=O)[C@@H](N)[C@@H](C)O)[C@@H](C)O)C(=O)N[C@@H](Cc1c[nH]cn1)C(=O)N[C@@H](CCCNC(=N)N)C(=O)N[C@@H](CO)C(=O)N[C@@H](Cc1ccc(O)cc1)C(=O)N[C@@H](CC(C)C)C(=O)N[C@H](C(=O)O)[C@@H](C)O [peptide 48]", "qualitative label": "fulfilled"}
{"molecule": "CC(C)C[C@H](NC(=O)[C@H](CCCNC(=N)N)NC(=O)[C@H](Cc1ccc(O)cc1)NC(=O)[C@H](CC(C)C)NC(=O)[C@@H](N)Cc1ccc(O)cc1)C(=O)N[C@@H](Cc1ccccc1)C(=O)N[C@@H](CCCNC(=N)N)C(=O)N[C@@H](CCCCN)C(=O)N[C@@H](CO)C(=O)N[C@@H](CC(N)=O)C(=O)N[C@@H](CC(C)C)C(=O)N[C@@H](CCCCN)C(=O)N1CCC[C@H]1C(=O)N[C@@H](Cc1ccccc1)C(=O)N[C@@H](CCC(=O)O)C(=O)O [peptide 91]", "qualitative label": "fulfilled"}
{"molecule": "CC[C@H](C)[C@H](NC(=O)[C@H](Cc1ccccc1)NC(=O)[C@@H](N)CO)C(=O)N[C@@H](CCC(=O)O)C(=O)N[C@@H](CC(=O)O)C(=O)N[C@@H](CC(C)C)C(=O)N[C@@H](CC(C)C)C(=O)N[C@@H](Cc1ccccc1)C(=O)N[C@@H](CC(N)=O)C(=O)N[C@@H](CCCCN)C(=O)N[C@H](C(=O)N[C@H](C(=O)N[C@@H](CC(C)C)C(=O)N[C@@H](C)C(=O)N[C@@H](CC(=O)O)C(=O)O)[C@@H](C)O)C(C)C [peptide 164]", "qualitative label": "not fulfilled"}
{"molecule": "CC(C)[C@H](NC(=O)CNC(=O)[C@H](Cc1ccc(O)cc1)NC(=O)[C@H](CS)NC(=O)[C@H](CCCCN)NC(=O)[C@H](Cc1ccccc1)NC(=O)[C@@H](NC(=O)[C@H](CO)NC(=O)[C@H](Cc1ccccc1)NC(=O)[C@H](CO)NC(=O)[C@H](C)NC(=O)[C@@H](N)CO)[C@@H](C)O)C(=O)N[C@@H](CO)C(=O)N1CCC[C@H]1C(=O)N[C@H](C(=O)O)[C@@H](C)O [peptide 75]", "qualitative label": "not fulfilled"}
